The reported numbers originate from ChEMBL document CHEMBL1126143.

System: P388
Assay: Tested in vivo for the antitumor activity against P388 in mice after intraperitoneal administration of 200 mg/kg dose; T/C= treated/control
Assay type: functional, Mus musculus
measurement type: T/C (%)

compound=CC(C)c1ccc(SCCSc2ccc(C(C)C)cc(=O)c2O)c(O)c(=O)c1 numeric_readout=171
compound=CC(C)c1ccc(CCCCCCCCCCCCc2ccc(C(C)C)cc(=O)c2O)c(O)c(=O)c1 numeric_readout=107
compound=CC(C)c1ccc(CCCCCCCCc2ccc(C(C)C)cc(=O)c2O)c(O)c(=O)c1 numeric_readout=110
compound=CC(C)c1ccc(CCCCCCc2ccc(C(C)C)cc(=O)c2O)c(O)c(=O)c1 numeric_readout=80
compound=CC(C)c1ccc(SCCCSc2ccc(C(C)C)cc(=O)c2O)c(O)c(=O)c1 numeric_readout=131
compound="CCOC(c1ccc(OC)cc1)c1ccc(C(C)C)cc(=O)c1O (stereo unspecified)" numeric_readout=140
